test_conditions: buffer; pH 7.4; 200.0 µM
measurement_label: solubility kinetic (µg/mL)
Field format: number, assumed µg/mL, no unit text.

Q. Any idea what solubility kinetic was measured for CC1(C)OC(C)(C)/C(=C\c2ccccc2[N+](=O)[O-])C1=O ?
A. 27.7

Q. Look up solubility kinetic for this compound: N#Cc1ccc(/C=C\c2nccc3c2[nH]c2ccccc23)cc1
A. 1.3

Q. Using the record for O=C(Cc1ccccc1)Nc1ccc(Cl)cn1 , report its solubility kinetic.
A. 21.5

Q. Which solubility kinetic is reported for this compound? CCNC(=O)c1ccc(=O)n(Cc2ccc(Cl)cc2Cl)c1
A. 39

Q. Can you look up the measured solubility kinetic of Cc1ccc(C(=O)OCC(=O)NC(C)c2ccccc2)cc1C (centres undefined) for me?
A. 1.1

Q. For the compound NS(=O)(=O)c1ccc(CCNC(=O)c2ccc(Cl)s2)cc1 , what solubility kinetic is on record?
A. 10.6

Q. Consider the compound Cc1ccccc1OCCCn1c(CO)nc2ccccc21 and give its measured solubility kinetic.
A. 12.9

Q. Given the entry O=C(Nc1ncc([N+](=O)[O-])s1)c1ccccc1Br , report its measured solubility kinetic.
A. 41.1

Q. GET /values?readout=solubility kinetic&item= C=CCn1c(C(O)c2ccccc2)nc2ccccc21 (centres undefined)
A. 24.2

Q. Report solubility kinetic for COc1ccc(NC(=S)NC(=O)/C=C/c2ccco2)cc1 please.
A. 1.2

Q. So what's the measured solubility kinetic for this one? OC1CCNC(=S)N1c1ccccc1 (centres undefined)
A. 30.7

Q. Record request: solubility kinetic value, item C=CCn1c(O)c(C(C)=Nc2ccc3c(c2)CCC3)c(=O)[nH]c1=O
A. 0.8

Q. Which value of solubility kinetic has been reported for COc1ccc(NC(=O)CCN2C(=O)[C@@H]3[C@H](C2=O)[C@H]2C=C[C@@H]3C2)cc1 in the records?
A. 46.7
